Origin of the recorded values: ChEMBL document CHEMBL1759940

- Organism: Mus musculus
- TEST DETAILS: Protective index, ratio of TD50 for Swiss mouse to ED50 for Swiss mouse by maximal electroshock-induced seizures test
- Assay type: functional
QUANTITY: PI

>>> result("CCCCCCCCOc1ccc2c(c1)CCCc1n[nH]c(=O)n1-2")
">54"
>>> result("O=c1[nH]nc2n1-c1ccc(OCc3ccc(Cl)cc3)cc1CCC2")
">23.2"
>>> result("CCCCCCCOc1ccc2c(c1)CCCc1n[nH]c(=O)n1-2")
">63.4"
>>> result("O=c1[nH]nc2n1-c1ccc(OCc3ccccc3F)cc1CCC2")
">50.6"
>>> result("O=c1[nH]nc2n1-c1ccc(OCc3cccc(F)c3)cc1CCC2")
">52.9"
>>> result("O=c1[nH]nc2n1-c1ccc(OCc3ccccc3Cl)cc1CCC2")
">28.3"

**Query** Kindly indicate its recorded PI. Item: `CCCOc1ccc2c(c1)CCCc1n[nH]c(=O)n1-2`
**Result** >12.3

**Query** Kindly indicate its recorded PI. Item: `CCCCOc1ccc2c(c1)CCCc1n[nH]c(=O)n1-2`
**Result** >29.9

**Query** Kindly indicate its recorded PI. Item: `O=c1[nH]nc2n1-c1ccc(OCc3ccccc3)cc1CCC2`
**Result** >30.5

**Query** Kindly indicate its recorded PI. Item: `CCCCCOc1ccc2c(c1)CCCc1n[nH]c(=O)n1-2`
**Result** >45.4

**Query** Kindly indicate its recorded PI. Item: `Cc1ccc(COc2ccc3c(c2)CCCc2n[nH]c(=O)n2-3)cc1`
**Result** >18.6

**Query** Kindly indicate its recorded PI. Item: `O=c1[nH]nc2n1-c1ccc(OCc3ccc(Br)cc3)cc1CCC2`
**Result** >16.7

**Query** Kindly indicate its recorded PI. Item: `O=c1[nH]nc2n1-c1ccc(OCc3ccc(F)cc3)cc1CCC2`
**Result** >40.8

**Query** Kindly indicate its recorded PI. Item: `O=c1[nH]nc2n1-c1ccc(OCc3cccc(Cl)c3)cc1CCC2`
**Result** >35.3

**Query** Kindly indicate its recorded PI. Item: `CCCCCCOc1ccc2c(c1)CCCc1n[nH]c(=O)n1-2`
**Result** >62.4
